FYI, the data here is from ChEMBL document CHEMBL1201862.

GI50: recorded values
# System: UACC-62
# assay summary: NCI tumour cell line growth inhibition, 48 h
Calls of active or inactive are those of the source. No stated cut-off is given here; in the data, active = GI50 up to about 1.1 µM and inactive = higher.

CC(C)[C@@H]1C=C(c2ccccc2)c2ccccc2C1C(C#N)(C#N)C(C)C (stereo partly specified) ... > 100 µM (inactive)
N#CC1(C#N)C2C=CC(C3CC=CC32)C1(C#N)C#N (stereo unspecified) ... 8.77 µM (inactive)
O=C(C/C=C/c1ccccc1)c1ccccc1 ... 12.6 µM (inactive)
COc1ccc(CCN2C(=O)C=CC2=O)cc1OC ... 17.3 µM (inactive)
CCCCCCC(=O)O[C@H]1CC[C@H]2[C@@H]3CCC4C/C(=N/NC(=O)c5cccc6c(=O)c7ccccc7[nH]c56)C=C(C)[C@]4(C)[C@H]3CC[C@]12C (stereo partly specified) ... > 25 µM (inactive)

Could you now consider this next compound?
Query: Kindly indicate its recorded GI50. Item: CCCCSC1=N/C(=C\c2ccc(N(C)C)cc2)C(NN)=N1
Result: > 100 µM (inactive)
